Test system: MCF7 breast
Assay: NCI-60 one-dose screen, 48 h
Settings: 10 µM unless noted
Method: Growth inhibition of the MCF7 human tumor cell line is measured as a screen for anti-cancer activity. Cells are grown in 96 well plates and exposed to the test compound for 48 hours. Compounds are tested at a single concentration, which is 10^-5 M for most compounds. The reported endpoint is percent growth (GI% or GIPRCNT), where numbers from 0 - 100% represent growth inhibition, and numbers from -100% - 0 represent cell death. For example, a value of 40 represents 60% growth inhibition. […]
The panel holds about 83,000 compounds, 20% with a hit somewhere; the sample as a whole holds those more often. Calls of active or inactive are those of the source. How the source made its calls: active means growth percent below 10; inactive means the rest.
Write down one outcome, taken from true (1) = active, false (0) = inactive

Given Cc1cc(N)n(S(=O)(=O)c2oc(-c3ccccc3)nc2C#N)n1 , state the outcome it received in this test.
false (0)

Could you please tell me the result logged for CC(O)CN1CCCCC1 (stereo unspecified) in this assay?
false (0)

Continuing:
Give the logged outcome of this assay for the following compound: Cc1ccc2[nH]c(=O)c3c(c2c1)Oc1ncn2nc(-c4ccco4)nc2c1C3c1ccc(Cl)cc1 (stereo unspecified)
false (0)

GET /call?item= COc1ccc(-n2c(=O)sc3c(Cl)nc(C)nc32)c(OC)c1 returns the recorded outcome of this test.
false (0)

Each compound tested received a call. Report the one for C=CCSc1n[nH]c(-c2cccs2)n1 .
false (0)

---

Recorded growth values for a group of compounds are listed next.
System: SK-MEL-28 melanoma
Experiment: NCI-60 one-dose screen, 48 h (100 = growth as untreated, 0 = no growth, -100 = all killed)
Details: 10 µM unless noted
Compounds without any hit were thinned out: in the full panel of roughly 83,000, 20% have a hit.
Please state the figure in %; there is no need to write the unit.

Tell me the measured growth of CCOC(=O)c1cn2c3c(cc(C)cc3c1=O)C(=O)/C(=C/c1ccccc1)C2 , please.
93.8

Given the compound CNc1ccc(Br)c2c1C(=O)c1ccccc1C2=O , what is its reported growth?
115

Recorded growth for O=C(NNC(=O)N1c2ccccc2C=Cc2ccccc21)c1ccccc1 , please?
102

***
growth for COc1ccc2cc(-c3ccc(-c4ccc(C(=N)N)cc4)s3)ccc2c1 ?
107

What measured growth goes with COc1cccc(/C=C2\Oc3cc(OCCCN4CCCC4)ccc3C2=O)c1OC ?
105

Returns the measured growth for the input compound. Input: Cc1ccc2ccccc2c1C[n+]1ccccc1
110

# growth lookup, item O=C(c1ccccc1)C1OC1c1ccc([N+](=O)[O-])cc1 (stereo unspecified)
97.4

---

Test system: HS 578T breast
Assay: NCI-60 one-dose screen, 48 h (100 = growth as untreated, 0 = no growth, -100 = all killed)
Settings: 10 µM unless noted
This is part of a sample that, as a whole, favours compounds with a hit. Of some 83,000 tested, about 20% had one in any assay.
Readout type: growth (%)
// units = %; emit number, no label

// solved cases for growth follow
Item NC(N)=N/N=C/c1ccc(-c2ccc(-c3cc(Cl)cc(Cl)c3)s2)cc1 with HS 578T breast - growth?
80.8

Tell me reported growth for O=C(O)COc1ccc(-c2cssc2=S)cc1 , tested with HS 578T breast.
105

Requested read-out growth, target or system HS 578T breast, entry COc1ccc(-n2c(=O)sc3c(Cl)nc(C)nc32)c(OC)c1
93.9

HS 578T breast / growth / CC(C)(C)n1cc(-c2ccnc(NCCCNS(=O)(=O)c3ccc(C(F)(F)F)cc3)c2)c(-c2cccc(O)c2)n1 : value?
23.5

Give the reported growth for COc1cc(C2CC(c3ccc4c(c3)OCO4)=NN2C(C)=O)cc(OC)c1OC (configuration not stated) (system: HS 578T breast).
-7.69

What growth appears in the records for this molecule with HS 578T breast? O=C1Nc2ccc3c(c2/C1=C\c1cc2c(cc1Br)OCO2)OCO3
-14.5

Field: growth (HS 578T breast). Entry: Oc1ccccc1/C=N/NC(=S)NC1CC2C=CC1C2 (configuration not stated)
98.2

Recorded growth for CC1(c2ccc(Cl)cc2)OC(=O)CC(=O)O1 with HS 578T breast, please?
105

Look up growth with HS 578T breast for this molecule: CN(C)c1ncnc2c1ccn2C1OC(CO)C(O)C1O (configuration not stated)
17.5

Checklist item: growth tested on HS 578T breast, entry COc1ccc(S(=O)(=O)n2ccc(-c3ccc4c(c3)CCC(C)(C)O4)n2)cc1OC , value?
91.5

New cases:
Please state recorded growth (tested on HS 578T breast) of NC(=O)c1c(NC(=S)Nc2ccc(OC(F)(F)F)cc2)sc2c1CCC1(C2)OCCO1
79.5

Give the reported growth for Fc1ccccc1-c1nc(-c2nc3cc(Cl)c(Cl)cc3[nH]2)c2ccccn12 (system: HS 578T breast).
44
